measured-target: His-tagged human recombinant kinase full-length Akt1 (Homo sapiens (Human), UniProt P31749)
Sequence (P31749 whole entry): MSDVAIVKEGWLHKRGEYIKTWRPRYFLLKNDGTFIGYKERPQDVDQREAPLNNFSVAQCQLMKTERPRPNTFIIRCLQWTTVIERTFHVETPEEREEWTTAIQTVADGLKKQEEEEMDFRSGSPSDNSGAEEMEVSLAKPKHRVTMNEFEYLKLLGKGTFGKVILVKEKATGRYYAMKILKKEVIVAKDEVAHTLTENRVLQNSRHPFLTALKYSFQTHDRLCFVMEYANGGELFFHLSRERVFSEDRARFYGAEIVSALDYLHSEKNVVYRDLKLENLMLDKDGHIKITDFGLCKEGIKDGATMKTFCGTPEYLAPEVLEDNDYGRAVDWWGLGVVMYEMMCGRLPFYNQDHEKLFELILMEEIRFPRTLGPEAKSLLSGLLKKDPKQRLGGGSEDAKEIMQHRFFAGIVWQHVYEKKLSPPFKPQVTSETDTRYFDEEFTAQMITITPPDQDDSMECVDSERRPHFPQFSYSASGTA
assay-procedure: Akt1 kinase assay (TR-FRET)
settings: 10 μM ATP, read-out: Akt1, median IC50
pIC50: −log10 of the molar value.
# binarize pIC50: threshold 7 inclusive, high side 1.0, low side 0.0

compound="NC1(c2ccc(-c3nc4c(O)nccn4c3-c3ccccc3)cc2)CCC1 [Example 1]" category_label=0.0
compound="COc1nc(C(N)=O)cn2c(-c3ccccc3)c(-c3ccc(C4(N)CCC4)cc3)nc12 [Example 8]" category_label=1.0

Now for a further compound.
Textbook exercise: given the entry COc1nc(Br)cn2c(-c3ccccc3)c(-c3ccc(C4(N)CCC4)cc3)nc12 [Example 3] , state whether its pIC50 is greater than or equal to 7.
1.0

---

Tested on: MCF-7 breast tumour cell line
assay-procedure: Tumor cell proliferation assay (CellTiter-Glo, 72 h), MCF-7
Assay type: cell-based
settings: Homo sapiens, MCF7; 72 h drug exposure
Experimental: Biological Assay 4.0: Tumor Cell Proliferation Assays Compounds were tested in a cell-based assay that measures the capacity of the compounds to inhibit tumour cell proliferation following a 72 h drug exposure. Cell viability is determined using CellTiter-Glow® (CTG, Promega, cat# G7571/2/3). The CellTiter-Glo® Luminescent Cell Viability Assay is a homogeneous method to determine the number of viable cells in culture. […]
Reported pIC50 values for a set of molecules
Units for pIC50: none; it is -log10 of a concentration expressed in mol/L.

molecule="COc1nc(C(N)=O)cn2c(-c3ccccc3)c(-c3ccc(C4(N)CCC4)cc3)nc12 [Example 8]" reading=6.57
molecule="Cc1cn2c(-c3ccccc3)c(-c3ccc(C4(N)CCC4)cc3)nc2c(C)n1 [Example 2]" reading=6.14
molecule="COC(=O)c1cn2c(-c3ccccc3)c(-c3ccc(C4(N)CCC4)cc3)nc2c(OC)n1 [Example 7]" reading=6.38
molecule="CCOC(=O)c1cn2c(-c3ccccc3)c(-c3ccc(C4(N)CCC4)cc3)nc2cn1 [Example 5]" reading=5.62
molecule="CCc1cn2c(-c3ccccc3)c(-c3ccc(C4(N)CCC4)cc3)nc2c(OC)n1 [Example 4]" reading=6.07

Lookup: pIC50 / MCF-7 breast tumour cell line / COc1nc(Br)cn2c(-c3ccccc3)c(-c3ccc(C4(N)CCC4)cc3)nc12 [Example 3]
5.77

Check NC(=O)c1cn2c(-c3ccccc3)c(-c3ccc(C4(N)CCC4)cc3)nc2cn1 [Example 6] too.
5.96

---

Test system: KPL-4 breast cancer cell line
assay-procedure: Tumor cell proliferation assay (CellTiter-Glo, 72 h), KPL-4
Type: cell-based
settings: Homo sapiens, KPL4; 1.67 μM, 72 h drug exposure; read-out: KPL-4 median inhibition at 1.67 μM (%)
Description: Biological Assay 4.0: Tumor Cell Proliferation Assays Compounds were tested in a cell-based assay that measures the capacity of the compounds to inhibit tumour cell proliferation following a 72 h drug exposure. Cell viability is determined using CellTiter-Glow® (CTG, Promega, cat# G7571/2/3). The CellTiter-Glo® Luminescent Cell Viability Assay is a homogeneous method to determine the number of viable cells in culture. […]
# binarize inhibition at 1.67 µM: threshold 60% inclusive, high side 1, low side -1

compound="COc1nc(C(N)=O)cn2c(-c3ccccc3)c(-c3ccc(C4(N)CCC4)cc3)nc12 [Example 8]" measured_target="KPL-4 breast cancer cell line" category_label=1
compound="Cc1cn2c(-c3ccccc3)c(-c3ccc(C4(N)CCC4)cc3)nc2c(C)n1 [Example 2]" measured_target="KPL-4 breast cancer cell line" category_label=1
compound="COC(=O)c1cn2c(-c3ccccc3)c(-c3ccc(C4(N)CCC4)cc3)nc2c(OC)n1 [Example 7]" measured_target="KPL-4 breast cancer cell line" category_label=-1

Textbook exercise: given the entry CCc1cn2c(-c3ccccc3)c(-c3ccc(C4(N)CCC4)cc3)nc2c(OC)n1 [Example 4] , state whether its inhibition at 1.67 µM is greater than or equal to 60%.
1

Check COc1nc(Br)cn2c(-c3ccccc3)c(-c3ccc(C4(N)CCC4)cc3)nc12 [Example 3] too.
-1

Check NC(=O)c1cn2c(-c3ccccc3)c(-c3ccc(C4(N)CCC4)cc3)nc2cn1 [Example 6] too.
1

Check CCOC(=O)c1cn2c(-c3ccccc3)c(-c3ccc(C4(N)CCC4)cc3)nc2cn1 [Example 5] too.
-1

---

measured-target: His-tagged human recombinant kinase full-length Akt2 (Homo sapiens (Human), UniProt P31751)
Sequence (P31751 whole entry): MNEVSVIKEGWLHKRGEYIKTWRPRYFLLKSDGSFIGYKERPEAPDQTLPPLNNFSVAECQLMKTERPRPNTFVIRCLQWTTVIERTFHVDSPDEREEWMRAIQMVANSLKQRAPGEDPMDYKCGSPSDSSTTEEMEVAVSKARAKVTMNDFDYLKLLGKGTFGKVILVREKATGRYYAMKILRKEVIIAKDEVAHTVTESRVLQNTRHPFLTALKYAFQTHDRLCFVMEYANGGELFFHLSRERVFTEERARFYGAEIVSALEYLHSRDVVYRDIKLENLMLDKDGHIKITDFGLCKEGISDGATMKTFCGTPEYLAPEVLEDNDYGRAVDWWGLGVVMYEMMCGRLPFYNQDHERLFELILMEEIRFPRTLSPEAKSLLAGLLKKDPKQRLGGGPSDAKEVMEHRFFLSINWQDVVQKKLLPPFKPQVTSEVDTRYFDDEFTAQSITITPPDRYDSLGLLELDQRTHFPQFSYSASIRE
assay-procedure: Akt2 kinase assay (TR-FRET)
settings: 10 μM ATP, read-out: Akt2, median IC50
Labelling field: enter Y if recorded IC50 is less than 90 nM. Enter N if it equals or exceeds that cut-off.

compound_string=COc1nc(Br)cn2c(-c3ccccc3)c(-c3ccc(C4(N)CCC4)cc3)nc12 category_label=Y
compound_string=CCc1cn2c(-c3ccccc3)c(-c3ccc(C4(N)CCC4)cc3)nc2c(OC)n1 category_label=Y
compound_string=COC(=O)c1cn2c(-c3ccccc3)c(-c3ccc(C4(N)CCC4)cc3)nc2c(OC)n1 category_label=Y
compound_string=Cc1cn2c(-c3ccccc3)c(-c3ccc(C4(N)CCC4)cc3)nc2c(C)n1 category_label=N
compound_string=COc1nc(C(N)=O)cn2c(-c3ccccc3)c(-c3ccc(C4(N)CCC4)cc3)nc12 category_label=Y

Quick check: IC50 of NC(=O)c1cn2c(-c3ccccc3)c(-c3ccc(C4(N)CCC4)cc3)nc2cn1 under 90 nM?
N

Check NC1(c2ccc(-c3nc4c(O)nccn4c3-c3ccccc3)cc2)CCC1 too.
N

---

System: MCF-7 breast tumour cell line
assay-procedure: Tumor cell proliferation assay (CellTiter-Glo, 72 h), MCF-7
Type: cell-based
settings: Homo sapiens, MCF7; 1.67 μM, 72 h drug exposure; read-out: MCF-7 median inhibition at 1.67 μM (%)
property-label: inhibition at 1.67 µM (%)
Express it in %; write the number only.

Study these solved cases before continuing.
compound_string=COC(=O)c1cn2c(-c3ccccc3)c(-c3ccc(C4(N)CCC4)cc3)nc2c(OC)n1 property_label="inhibition at 1.67 µM" reading=72.3
compound_string=CCc1cn2c(-c3ccccc3)c(-c3ccc(C4(N)CCC4)cc3)nc2c(OC)n1 property_label="inhibition at 1.67 µM" reading=72.4

Data request, read-out inhibition at 1.67 µM, for NC(=O)c1cn2c(-c3ccccc3)c(-c3ccc(C4(N)CCC4)cc3)nc2cn1
57.3

Check Cc1cn2c(-c3ccccc3)c(-c3ccc(C4(N)CCC4)cc3)nc2c(C)n1 too.
70.8

---

Reported IC50 values for a set of compounds
measured-target: His-tagged human recombinant kinase full-length Akt1 (Homo sapiens (Human), UniProt P31749)
assay-procedure: Akt1 kinase assay (TR-FRET)
settings: 10 μM ATP, read-out: Akt1, median IC50
Express it in nM; write the number only.

Data request, read-out IC50, for CCc1cn2c(-c3ccccc3)c(-c3ccc(C4(N)CCC4)cc3)nc2c(OC)n1 [Example 4]
110

Check Cc1cn2c(-c3ccccc3)c(-c3ccc(C4(N)CCC4)cc3)nc2c(C)n1 [Example 2] too.
61

Check COC(=O)c1cn2c(-c3ccccc3)c(-c3ccc(C4(N)CCC4)cc3)nc2c(OC)n1 [Example 7] too.
64

Check NC(=O)c1cn2c(-c3ccccc3)c(-c3ccc(C4(N)CCC4)cc3)nc2cn1 [Example 6] too.
110
